Measured values drawn from patent US11633484B2 for this set.

# procedure.text: Determination of oral bioavailability of Abiraterone conjugates (plasma AUClast after oral gavage)
# Format: in vivo
# stated.conditions: AUClast Abiraterone/AUClast conjugate + AUClast Abiraterone × 100%; female Beagle dogs, oral 15 μmole/kg
endpoint.name: Conversion rate to Abiraterone

1. C=CCN(CO[C@H]1CC[C@@]2(C)C(=CCC3[C@@H]2CC[C@]2(C)C(c4cccnc4)=CC[C@@H]32)C1)C(=O)O[C@@H]1O[C@H](CO)C(O)[C@H](O)C1O (stereo partly shown) [Compound 7l] ... +++ (41-50%)
2. CN(CO[C@H]1CC[C@@]2(C)C(=CCC3[C@@H]2CC[C@]2(C)C(c4cccnc4)=CC[C@@H]32)C1)C(=O)O[C@@H]1O[C@H](CO)C(O)[C@H](O)C1O (stereo partly shown) [Compound 7a] ... +++ (41-50%)
3. C[C@]12CC[C@H](OCN(C(=O)O[C@@H]3O[C@H](CO)C(O)[C@H](O)C3O)C3CCC3)CC1=CCC1[C@@H]2CC[C@]2(C)C(c3cccnc3)=CC[C@@H]12 (stereo partly shown) [Compound 7g] ... ++ (21-40%)
4. CN(CO[C@H]1CC[C@@]2(C)C(=CCC3[C@@H]2CC[C@]2(C)C(c4cccnc4)=CC[C@@H]32)C1)C(=O)O[C@@H]1O[C@H](CO)C(O)[C@H](O)C1O (stereo partly shown) [Compound 13] ... ++ (21-40%)
5. CCCN(CO[C@H]1CC[C@@]2(C)C(=CCC3[C@@H]2CC[C@]2(C)C(c4cccnc4)=CC[C@@H]32)C1)C(=O)O[C@@H]1O[C@H](CO)C(O)[C@H](O)C1O (stereo partly shown) [Compound 7c] ... +++ (41-50%)
